MEASUREMENT_TARGET: P2Y purinoceptor 12 (Homo sapiens)
Sequence (Q9H244 whole entry): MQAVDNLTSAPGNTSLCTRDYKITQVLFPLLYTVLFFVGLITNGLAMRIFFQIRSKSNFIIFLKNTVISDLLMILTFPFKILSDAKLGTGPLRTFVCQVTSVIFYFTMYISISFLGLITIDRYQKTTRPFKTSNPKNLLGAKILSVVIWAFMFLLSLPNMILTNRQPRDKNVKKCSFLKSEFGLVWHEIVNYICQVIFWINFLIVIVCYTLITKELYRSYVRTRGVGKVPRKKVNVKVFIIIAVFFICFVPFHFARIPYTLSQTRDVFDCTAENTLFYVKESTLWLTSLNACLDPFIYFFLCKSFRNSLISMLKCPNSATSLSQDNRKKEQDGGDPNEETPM
pIC50: −log10 of the molar value.

{"columns": ["MOLECULE_SMILES", "pIC50"],
 "data": [
  ["COC(=O)[C@H](c1ccccc1Cl)N1CCc2sccc2C1", 5.62]
]}

----------
MEASUREMENT_TARGET: P2Y purinoceptor 12 (Homo sapiens)
PROCEDURE_TEXT: Displacement of [3H]-2MesADP from human P2Y12 in HEK cell membrane assessed as inhibition constant incubated for 1 hr by scintillation counter method
Type: cell membranes
METRIC: Ki (nM)

{"columns": ["MOLECULE_SMILES", "REPORTED_VALUE"],
 "data": [
  ["CCCc1cc2c(N3CCn4c(nnc4C(F)(F)F)C3)nc(OCCF)nc2s1", 0.3]
]}
